- Test system: AR mRNA
- assay.name: Dose-dependent antisense inhibition of human AR in HuVEC cells (electroporation, qRT-PCR RTS3559, IC50)
- Assay type: cell-based
- condition.set: Table 31; 46.9 nM, HuVEC, electroporation, approximately 16 hours
Oligonucleotides are written 5' to 3', each unit as a sugar letter and its base; * is a phosphorothioate linkage, no mark a phosphodiester; rarer units and linkages stand in square brackets, end groups in braces. Plain capitals give the bases only. k = constrained ethyl (cEt); [5mC] = 5-methylcytosine; d = 2'-deoxy (DNA)
Classify as follows. Reported percent inhibition of AR, 46.9 nM greater than or equal to 20%: Met. Reported percent inhibition of AR, 46.9 nM below: Not met.

Hi team, for 583719 (antisense kG*kT*kA*dG*dG*dT*d[5mC]*dT*dT*dG*dG*dA*d[5mC]*kG*kG*k[5mC]) [compound 583719] , is the recorded percent inhibition of AR, 46.9 nM at or above 20%?
Met

Is it the case that 583746 (antisense kT*kG*k[5mC]*dG*d[5mC]*dT*d[5mC]*dG*d[5mC]*dG*dG*d[5mC]*d[5mC]*kT*k[5mC]*kT) [compound 583746] has percent inhibition of AR, 46.9 nM reaching or exceeding 20%?
Met

# bool: percent inhibition of AR, 46.9 nM of 583747 (antisense kG*k[5mC]*kT*dG*d[5mC]*dG*d[5mC]*dT*d[5mC]*dG*d[5mC]*dG*dG*k[5mC]*k[5mC]*kT) [compound 583747] >= 20%
Not met

Say whether 583693 (antisense k[5mC]*kT*kG*dT*dG*dA*dT*dG*dA*dT*dG*d[5mC]*dG*kG*kT*kA) [compound 583693] shows percent inhibition of AR, 46.9 nM of 20% or more.
Not met

Entry 583790 (antisense kG*kT*kT*dG*d[5mC]*dA*dT*dG*dG*dT*dG*d[5mC]*dT*kG*kG*k[5mC]) [compound 583790] : is its percent inhibition of AR, 46.9 nM no less than 20%?
Not met

# bool: percent inhibition of AR, 46.9 nM of 549372 (kA*kA*kG*dT*dT*dG*dT*dA*dG*dT*dA*dG*dT*k[5mC]*kG*k[5mC]) [compound 549372] >= 20%
Not met

Hi, just wondering whether 583789 (antisense kT*kG*k[5mC]*dA*dT*dG*dG*dT*dG*d[5mC]*dT*dG*dG*k[5mC]*k[5mC]*kT) [compound 583789] shows percent inhibition of AR, 46.9 nM of 20% or higher.
Met

Assess whether reported percent inhibition of AR, 46.9 nM for 583821 (k[5mC]*kA*kG*dA*dA*dA*dT*dG*dG*dT*d[5mC]*dG*dA*kA*kG*kT) [compound 583821] sits at 20% or higher.
Not met

Does 583714 (antisense kT*k[5mC]*k[5mC]*dA*dT*d[5mC]*d[5mC]*dT*dT*dG*dA*dG*d[5mC]*kT*kT*kG) [compound 583714] have a reported percent inhibition of AR, 46.9 nM of at least 20%?
Met

Please check the record 583700 (antisense kG*kA*kA*dG*dA*dG*dT*dT*d[5mC]*dA*dA*d[5mC]*dA*kG*kG*k[5mC]) [compound 583700] and state if its percent inhibition of AR, 46.9 nM is at or above 20%.
Not met

Check the entry 583731 (antisense k[5mC]*kG*k[5mC]*dG*d[5mC]*dA*d[5mC]*dG*d[5mC]*dT*d[5mC]*dT*dG*kG*kA*kA) [compound 583731] : does percent inhibition of AR, 46.9 nM equal or exceed 20%?
Not met

Check the entry 583799 (antisense kT*kG*k[5mC]*d[5mC]*dT*dT*d[5mC]*dG*dG*dA*dT*dA*d[5mC]*kT*kG*k[5mC]) [compound 583799] : does percent inhibition of AR, 46.9 nM equal or exceed 20%?
Met

Determine whether this substance has percent inhibition of AR, 46.9 nM no lower than 20%: 583795 (antisense kT*kG*k[5mC]*dT*dG*dT*dT*dG*d[5mC]*dT*dG*dA*dA*kG*kG*kA) [compound 583795]
Met

# bool: percent inhibition of AR, 46.9 nM of 583809 (antisense kT*kG*kT*d[5mC]*d[5mC]*dT*dT*dG*dG*dA*dG*dG*dA*kA*kG*kT) [compound 583809] >= 20%
Not met

---

So I've got a bunch of substances here, and I need their CRP values.
- condition.set: cynomolgus monkey, in vivo, sc, 40 mg/kg

# CRP lookup, item TGATTTAATGGTTGCA [ISIS 569236] (cEt/MOE gapmer chemistry, further chemistry not given here)
2.6 mg/dL

Name the reported CRP value associated with the substance ISIS 584269: antisense compound targeted to human AR (CCTTATGGATGCTGCT; 3-10-3 (S)-cEt gapmer, further chemistry not given here)
4.9 mg/dL

Requested read-out: CRP. Entry: TGATTTAATGGTTGCA [ISIS 569213] (cEt/MOE gapmer chemistry, further chemistry not given here)
2.8 mg/dL

Recorded CRP of TTGATTTAATGGTTGC [ISIS 560131] (MOE and (S)-cEt gapmer chemistry, further chemistry not given here) , please.
1.7 mg/dL

Which CRP is listed for ISIS 584149: antisense compound targeted to human AR (GTCAATATCAAAGCAC; 3-10-3 (S)-cEt gapmer, further chemistry not given here) ?
1.7 mg/dL

Could you tell me which CRP is on file for ISIS 584468: antisense compound targeted to human AR (CATTGTACTATGCCAG; 3-10-3 (S)-cEt gapmer, further chemistry not given here) ?
1.3 mg/dL

Item TTGATTTAATGGTTGC [ISIS 579671] (cEt/MOE gapmer chemistry, further chemistry not given here) has what recorded CRP?
4.5 mg/dL

What value of measured CRP is listed for ISIS 583918: antisense compound targeted to human AR (AGTCGCGACTCTGGTA; 3-10-3 (S)-cEt gapmer, further chemistry not given here) ?
3.5 mg/dL

Can you look up the measured CRP of TGATTTAATGGTTGCA [ISIS 569221] (cEt/MOE gapmer chemistry, further chemistry not given here) for me?
4.9 mg/dL

Query (substance): TGATTTAATGGTTGCA [ISIS 569216] (cEt/MOE gapmer chemistry, further chemistry not given here) ; field requested: CRP
3.6 mg/dL

Endpoint output: CRP of ISIS 584163: antisense compound targeted to human AR (GAACATTATTAGGCTA; 3-10-3 (S)-cEt gapmer, further chemistry not given here) . Value?
1.0 mg/dL

// CRP lookup, key: GATTTAATGGTTGCAA (cEt gapmer chemistry, further chemistry not given here) [ISIS 586124]
4.0 mg/dL

---

Field: Percent Inhibition of AR mRNA relative to the PBS control, Skeletal Muscle. Provide a value for each of the substances that follow.
- Test system: AR mRNA
- assay.name: AR mRNA in liver, heart, skeletal muscle, kidney, prostate of cynomolgus monkeys
- Type: in vivo
- condition.set: cynomolgus monkey, 40 mg/kg subcutaneously, weeks 1 to 6, Skeletal Muscle
Oligonucleotides are written 5' to 3', each unit as a sugar letter and its base; * is a phosphorothioate linkage, no mark a phosphodiester; rarer units and linkages stand in square brackets, end groups in braces. Plain capitals give the bases only. e = 2'-O-(2-methoxyethyl) (MOE); k = constrained ethyl (cEt); [5mC] = 5-methylcytosine; d = 2'-deoxy (DNA)
Number only, in %; omit the unit.

Please give the measured Percent Inhibition of AR mRNA relative to the PBS control, Skeletal Muscle for this substance: 584468 (k[5mC]*kA*kT*dT*dG*dT*dA*d[5mC]*dT*dA*dT*dG*d[5mC]*k[5mC]*kA*kG) [compound 584468]
53

I would be grateful if you could share the reported Percent Inhibition of AR mRNA relative to the PBS control, Skeletal Muscle for 584149 (kG*kT*k[5mC]*dA*dA*dT*dA*dT*d[5mC]*dA*dA*dA*dG*k[5mC]*kA*k[5mC]) [compound 584149] .
63

For the substance 560131 (antisense kT*kT*kG*dA*dT*dT*dT*dA*dA*dT*dG*dG*kT*kT*kG*e[5mC]) [compound 560131] , what Percent Inhibition of AR mRNA relative to the PBS control, Skeletal Muscle is on record?
30

Using the record for 584269 (k[5mC]*k[5mC]*kT*dT*dA*dT*dG*dG*dA*dT*dG*d[5mC]*dT*kG*k[5mC]*kT) [compound 584269] , report its Percent Inhibition of AR mRNA relative to the PBS control, Skeletal Muscle.
76

---

Provide the reported percent inhibition of AR of each item.
- Tested on: AR mRNA
- assay.name: Dose-dependent antisense inhibition of human AR in HuVEC cells (electroporation, qRT-PCR RTS3559, IC50)
- Type: cell-based
- condition.set: 1500.0 nM; HuVEC, ~16 h; Table 4
Oligonucleotides are written 5' to 3', each unit as a sugar letter and its base; * is a phosphorothioate linkage, no mark a phosphodiester; rarer units and linkages stand in square brackets, end groups in braces. Plain capitals give the bases only. k = constrained ethyl (cEt); [5mC] = 5-methylcytosine; d = 2'-deoxy (DNA)
Quick note: give the figure in %, leave out the unit.

Using the record for 549458 (kG*kT*kT*dG*dA*dT*dT*dT*dA*dA*dT*dG*dG*kT*kT*kG) [compound 549458] , report its percent inhibition of AR.
98

Give the measured percent inhibition of AR of 549459 (kA*kT*kG*dG*dT*dT*dG*dA*dT*dT*dT*dA*dA*kT*kG*kG) [compound 549459] .
97

Find the recorded percent inhibition of AR belonging to 549332 (kG*k[5mC]*kG*d[5mC]*dT*d[5mC]*dT*dG*dA*d[5mC]*dA*dG*d[5mC]*k[5mC]*kT*k[5mC]; antisense) [compound 549332] and report it.
79

Look at this substance and give its reported percent inhibition of AR. 549432 (kG*kA*kG*dG*dA*dT*d[5mC]*dA*dT*d[5mC]*dA*d[5mC]*dA*kG*kA*kT) [compound 549432]
92

What measured percent inhibition of AR goes with 549366 (k[5mC]*kT*kT*dG*d[5mC]*d[5mC]*dT*dG*d[5mC]*dG*d[5mC]*dT*dG*kT*k[5mC]*kG; antisense) [compound 549366] ?
91

Bench note: what percent inhibition of AR did 549457 (kT*kT*kG*dA*dT*dT*dT*dA*dA*dT*dG*dG*dT*kT*kG*k[5mC]) [compound 549457] show?
99

Returns the measured percent inhibition of AR for the input substance. Input: 549387 (kA*kG*k[5mC]*dT*dT*d[5mC]*dA*dT*d[5mC]*dT*d[5mC]*d[5mC]*dA*k[5mC]*kA*kG; antisense) [compound 549387]
92

Quick one: percent inhibition of AR for 549338 (kG*kG*k[5mC]*dT*dG*dT*dG*dA*dT*dG*dA*dT*dG*k[5mC]*kG*kG; antisense) [compound 549338] ?
78

Need percent inhibition of AR, item 549414 (kG*kT*kT*d[5mC]*dA*dT*dT*d[5mC]*dG*dA*dA*dG*dT*kT*k[5mC]*kA) [compound 549414]
76

Return reported percent inhibition of AR; argument: 549334 (k[5mC]*kA*k[5mC]*d[5mC]*dT*dG*d[5mC]*dG*dG*dG*dA*dA*dG*k[5mC]*kT*k[5mC]; antisense) [compound 549334]
72

Could you tell me which percent inhibition of AR is on file for 549434 (k[5mC]*kT*kA*dA*dA*d[5mC]*dT*dT*d[5mC]*d[5mC]*d[5mC]*dG*dT*kG*kG*k[5mC]) [compound 549434] ?
96

Look at this substance and give its reported percent inhibition of AR. 549347 (k[5mC]*kT*kT*d[5mC]*dG*d[5mC]*dG*d[5mC]*dA*d[5mC]*dG*d[5mC]*dT*k[5mC]*kT*kG; antisense) [compound 549347]
71
